Ref: patent US12622910B2

Assay: Phase 1 first-in-human study, plasma pharmacokinetics
Format: in vivo
Details: female, human, plasma, po, 100 mg, single 100 mg oral solution, female fasted; read-out: t1/2, dom (converted)
MEASURE: half-life (h)
Answers are plain numbers, in h.

// query Any idea what its half-life is? The compound is C=CC(=O)N[C@H]1CCC[C@H]1NC(=O)c1sc2nccc3c2c1NC(=O)N3c1cnc(CC(C)C)cc1C (atropisomer, axis not shown)
// result 1.6

###

Target: CYP2D6 (Homo sapiens)
Sequence (P10635 whole entry): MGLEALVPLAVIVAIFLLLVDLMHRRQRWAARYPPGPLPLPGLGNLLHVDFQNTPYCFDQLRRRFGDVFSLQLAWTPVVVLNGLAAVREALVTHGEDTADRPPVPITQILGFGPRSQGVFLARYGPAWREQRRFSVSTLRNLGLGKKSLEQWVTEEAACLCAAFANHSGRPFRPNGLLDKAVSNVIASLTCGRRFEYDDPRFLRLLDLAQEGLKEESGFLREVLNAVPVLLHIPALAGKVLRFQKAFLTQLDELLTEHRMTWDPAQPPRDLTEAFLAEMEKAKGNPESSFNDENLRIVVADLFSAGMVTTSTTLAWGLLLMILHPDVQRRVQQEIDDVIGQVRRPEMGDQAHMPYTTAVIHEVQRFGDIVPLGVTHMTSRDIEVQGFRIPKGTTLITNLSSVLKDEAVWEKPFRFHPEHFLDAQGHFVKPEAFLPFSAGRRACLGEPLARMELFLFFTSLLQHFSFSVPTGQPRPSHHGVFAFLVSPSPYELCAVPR
MEASURE: IC50 (µM)
Numbers only, in µM.

// query I have this compound here, C=CC(=O)N[C@H]1CCC[C@H]1NC(=O)c1sc2nccc3c2c1NC(=O)N3c1cnc(CC(C)C)cc1C (atropisomer, axis not shown) , and I need its recorded IC50.
// result 26
